These entries and their values trace back to paper PMC9756503.

- test.target: Recombinant human PDE5 (Homo sapiens)
- Construct: purchased Sigma-Aldrich
- assay.comment: Inhibition of PDE5-mediated enzymatic breakdown of cGMP
- Format: biochemical
- measurement.parameters: 37 °C; Cheng-Prusoff
- Procedure: Assessment of pentoxifyllines ability to inhibit the phosphodiesterase enzymes were performed by incubating cAMP or cGMP with seven different concentrations of pentoxifylline. […] Samples were analyzed for cGMP/GMP and cAMP/AMP content, using MS [14, 15]. Quantification of cAMP/AMP, cGMP/GMP and pentoxifylline in PDE- and intracellular access experiments were performed with liquid chromatography tandem mass spectrometry (LC–MS/MS). […]
measured.property: pKi
Kindly note that pKi refers to -log10 of the concentration in mol/L and answer with the value alone.

Quick one: pKi for CC(=O)CCCCn1c(=O)c2c(ncn2C)n(C)c1=O ? 5.71
